The measurements presented in this section are drawn from PubChem BioAssay.

TEST: modulators of S6 phosphorylation in cells, primary screen, cell-based, A549, cytoblot, luminescence, serum-stimulated (AID 1158);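 also: serum-stimulated A549 lung adenocarcinoma cells; signal is phosphorylated S6 detected by cytoblot immunostaining with HRP secondary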
PARTICULARS: A549 phospho-S6 cytoblot, 5 h, higher = more signal
For each record, write down the corresponding z-score.

**Query** Recall and state the measured z-score for C=CCC(OC(C)=O)[C@@H]1[C@@H](N(Cc2ccc(-c3cccc(C(F)(F)F)c3)o2)C(=O)Cc2ccc(OC)cc2)c2cc(OCCCO)ccc2N1C(=O)Cc1ccc2ccccc2c1 (stereo partly specified) .
**Result** 0.258

**Query** Name the recorded z-score of the compound listed here: CN(C)CCCCCCNC(=O)[C@@H]1C[C@@H]2C(=O)N[C@@H](CCCCN)C(=O)N2[C@@H]1c1ccc(O)cc1
**Result** 1.32

**Query** Check the records and state z-score for Cc1ccc(S[C@]2(C(=O)NCC(C)C)CC(=O)N(C3Cc4ccccc4C3)[C@@H]2c2ccc(CO)cc2I)cc1
**Result** -0.447

**Query** Please indicate z-score recorded for C=CCOC(=O)[C@H]1[C@@H]2C(=O)O[C@@H](c3ccccc3)[C@@H](c3ccccc3)N2[C@@H](c2ccc(OCCOC(=O)[C@H]3C[C@H]4C(=O)N[C@@H](CCCCNC(C)=O)C(=O)N4[C@H]3c3cccc(OCCO)c3)cc2)[C@]12C(=O)Nc1ccc(I)cc12
**Result** 0.112

**Query** Input CCCCC=C[C@@H](NC(=O)c1ccccc1)c1ccccc1 , output reported z-score.
**Result** 0.442

**Query** Supply measured z-score of [N-]=[N+]=Nc1ccccc1C[C@]1(C(=O)O)N=C(c2ccc(OCCCO)cc2)O[C@H]1c1ccccc1N=[N+]=[N-] in your reply.
**Result** -0.0428

====

TARGET_DESC: Calmodulin-1 (Homo sapiens) (UniProt P0DP23)
TEST: CALM1 binders on microarrays, EGTA buffer, profiling panel, biochemical, small-molecule microarray, Cy5-labelled CALM1 (AID 1111);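 also: labelled calmodulin applied in Tris saline Tween buffer holding calcium plus EGTA and DTT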
PARTICULARS: Cy5-CALM1 binding fluorescence, higher = more signal
REPORTED_ENDPOINT: composite z-score
Write the number on its own, no unit after it.

**Query** Provide measured composite z-score on Calmodulin-1 (Homo sapiens) (UniProt P0DP23) for COC(=O)[C@@]1(Cc2ccc(F)cc2)[C@H]2c3cc(C(=O)N4CCCC4)n(C)c3C[C@H]2CN1C(=O)c1ccccc1 please.
**Result** 2.5

**Query** State the measured composite z-score (Calmodulin-1 (Homo sapiens) (UniProt P0DP23)) of CN(C)C(=O)[C@]1(CCS(=O)(=O)c2ccccc2)N=C(c2ccc(OCCCO)cc2)O[C@@H]1c1ccccc1
**Result** 1.72

**Query** Report value: composite z-score, system: Calmodulin-1 (Homo sapiens) (UniProt P0DP23), compound: O=c1cccc(-c2ccco2)o1
**Result** -0.221

**Query** # lookup: Calmodulin-1 (Homo sapiens) (UniProt P0DP23) composite z-score, key = NC(=O)NCC#Cc1ccc2c(c1)[C@]1(C(=O)N2)[C@H](C(=O)N2CCN(c3ncccn3)CC2)[C@H]2C(=O)O[C@H](c3ccccc3)[C@H](c3ccccc3)N2[C@@H]1c1ccc(OCCO)cc1
**Result** 0.756

**Query** Give Calmodulin-1 (Homo sapiens) (UniProt P0DP23) composite z-score for the following compound: Cc1ccccc1C(O)C1C=CC2C(=O)N(c3ccccc3)C(=O)C2N1Nc1ccc([N+](=O)[O-])cc1 (configuration not stated)
**Result** 1.05

**Query** Provide composite z-score, tested on Calmodulin-1 (Homo sapiens) (UniProt P0DP23), for O=C(CS)NCCCCCNC(=O)[C@@H]1C[C@@H]2C(=O)N[C@@H](Cc3ccccc3)C(=O)N2[C@@H]1c1cccc(OCCO)c1 .
**Result** 1.94

**Query** Find composite z-score for CN1C(=O)C2C(C1=O)C1C=C(CCCO)C2C(C2CC2)N1Cc1cc2c(cc1Br)OCO2 (configuration not stated) on Calmodulin-1 (Homo sapiens) (UniProt P0DP23) and write it down.
**Result** 0.508
